meta.source: ChEMBL document CHEMBL1201862

# Test system: HOP-18
# ASSAY SUMMARY: NCI tumour cell line growth inhibition, 48 h
The source made the active and inactive calls. Cut-off read from the data, not from the text of the source: active = GI50 up to about 1.1 µM and inactive = higher.
Give one outcome, nothing more. List: 1 = active, 0 = inactive

Input: What call does the record list for CCC(C)c1cccc(C)c1NC(=O)C(=O)Cc1nc2ccccc2s1 (configuration not stated) ?
Output: 0

Input: What call does the record list for COCCCCCC(=O)CP(=O)(OC)OC ?
Output: 0

Input: What call does the record list for O=C1[C@H]2C(c3ccccc3)=NN(C(=O)c3ccccc3)[C@H]2C(=O)N1c1ccccc1 ?
Output: 0

Input: What call does the record list for N#CC12CC3(CCC1CCC1(C2)OCCO1)OCCO3 (configuration not stated) ?
Output: 0

Input: What call does the record list for O=C(NCCOCCO)c1ccc(O)cc1 ?
Output: 0

Input: What call does the record list for CN(C)c1ccc(/C=c2\sc3nc4ccccc4n3c2=O)cc1 ?
Output: 0

Input: What call does the record list for OCc1ccc(-c2ccc(-c3ccc(CO)s3)o2)s1 ?
Output: 1

Input: What call does the record list for ICC1CCCO1 (configuration not stated) ?
Output: 0

Input: What call does the record list for Oc1cc(O)c(Oc2cccc(O)c2O)c(O)c1 ?
Output: 0

Input: What call does the record list for CC(C)C1=Cc2ccc3c(c2C(=O)C1=O)CCCC3(C)C ?
Output: 0

Input: What call does the record list for Cc1c(N)nc(C(CC(N)=O)NCC(N)C(N)=O)nc1C(=O)NC(C(=O)NC(C)C(O)C(C)C(=O)NC(C(=O)NCCc1nc(-c2nc(C(=O)NCCCNC(C)c3ccccc3)cs2)cs1)C(C)O)C(OC1OC(CO)C(O)C(O)C1OC1OC(CO)C(O)C(OC(N)=O)C1O)c1c[nH]cn1 (configuration not stated) ?
Output: 0

Input: What call does the record list for CC(=O)OCC1OC(OC(C)=O)C(NC#N)C(OC(C)=O)C1OC(C)=O (configuration not stated) ?
Output: 0

Input: What call does the record list for O=CN/C=C\c1cc(O)ccc1O ?
Output: 0

Input: What call does the record list for COc1ccc2c(c1)CCCc1cn[nH]c1-2 ?
Output: 0

Input: What call does the record list for O=S1(=O)C[C@H](O)[C@H](O)CS1 ?
Output: 0

Input: What call does the record list for O=c1c(Cc2ccccc2)c(O)cc2n1CCC2 ?
Output: 0

Input: What call does the record list for COc1cc(/C=C/C(=O)O)ccc1C(=O)O/C=C/c1ccccc1 ?
Output: 0

Input: What call does the record list for Cc1ccc2c(ccc(/C=C/c3ccc(O)c4ncccc34)[n+]2C)c1 ?
Output: 0

Input: What call does the record list for O=C(CCc1nnc2s/c(=C\c3ccccc3)c(=O)n12)Nc1cc(Cl)ccc1Cl ?
Output: 0

Input: What call does the record list for C/C=C1\CN2CCc3c([nH]c4ccccc34)C2CC1CCO (configuration not stated) ?
Output: 0

Input: What call does the record list for O=C(CC(=O)N1N=C(n2ccc3ccccc32)CC1c1ccccc1)Nc1cccc(Cl)c1 (configuration not stated) ?
Output: 0

Input: What call does the record list for COc1ccc(NC(=O)CC/C(CC(=O)c2ccco2)=N/Nc2ccc([N+](=O)[O-])cc2[N+](=O)[O-])cc1 ?
Output: 0

Input: What call does the record list for O=C1OC(/C=C/c2ccccc2)C(=O)C1=O (configuration not stated) ?
Output: 0

Input: What call does the record list for C[C@H](CN1CC(=O)NC(=O)C1)N1CC(=O)NC(=O)C1 ?
Output: 0

Input: What call does the record list for CCCCCCCCCCCCCCCCOC(=O)C(C(=O)OCCCCCCCCCCCCCCCC)[N+](C)(C)CCOC(C)=O ?
Output: 0

Input: What call does the record list for C=C(C)C1CC=C(C)CC1 (configuration not stated) ?
Output: 0

Input: What call does the record list for Cc1ccccc1C1=[N+]([O-])c2ccccc2C1=O ?
Output: 0
